The entries below come with measured Population Mitochondria Different-Phenotype (%) values attached.
Tested on: HEK-293T
PROTOCOL_TEXT: Multiplex assay against HEK293T
Assay type: toxicity, cell-based
CONDITION_SUMMARY: human, 12 h, 1 µM, compound concentration 1 uM, replicate 1
# number only, unit % dropped from output

Recorded Population Mitochondria Different-Phenotype (%), per entry:
Nc1nc2c(c(N3CCNCC3)n1)CCC1=C2[C@@H]2CCCC[C@@H]2O1: 82
COc1ccc(NS(=O)(=O)c2sc3ccc(Cl)cc3c2C)cc1N1CCNCC1.Cl: 66
CNC(=O)c1cc(Oc2ccc(NC(=O)Nc3cc(C(C)(C)C)nn3-c3ccc4ncccc4c3)c(F)c2)ccn1: 4
Cl.Cl.NC1(c2ccc(-c3nc4ccn5c(=O)[nH]nc5c4cc3-c3ccccc3)cc2)CCC1: 10
COc1cc2c(NC3CCN(C(C)C)CC3)nc(N3CCC(F)(F)CC3)nc2cc1OCCCN1CCCC1: 96

`Cc1cc2c(cc1N1C(=O)c3cccc4c(CCCO)ccc(c34)C1=O)n(C)c(=O)n2C` has a reported Population Mitochondria Different-Phenotype (%) of 77

CC(C)Oc1ccc(C(=O)N[C@H](CNC(=O)CN(C)C)Cc2ccc(-c3cn4cccc([C@H](C)O)c4n3)cc2)cc1Cl [GSK-923295A] has a reported Population Mitochondria Different-Phenotype (%) of 10

`c1ccc2oc(-c3csc(C4CCN(Cc5nc6ncccc6[nH]5)CC4)n3)cc2c1` has a reported Population Mitochondria Different-Phenotype (%) of 5

`CCc1cc2c(cc1CC)CC(NC[C@H](O)c1ccc(O)c3[nH]c(=O)ccc13)C2` has a reported Population Mitochondria Different-Phenotype (%) of 74
